Items are presented alongside their recorded melting point.

Look over these answered cases.
structure_string=CC(C)Nc1cccnc1N1CCN(C(=O)c2ccc(C(=O)N3CCN(CCOCCO)CC3)cc2)CC1 val="92 to 93 °C"
structure_string=Cn1nc(C(F)(F)F)c(C(=O)CC#N)c1Cl val="103 to 105 °C"
structure_string=CC(=O)N(C#N)Cc1ccc(CN(C#N)C(C)=O)cc1 val="160 to 162 °C"
structure_string=ON=C(CCN1CCN(c2ccccn2)CC1)c1ccc(F)cc1 val="159 to 160 °C"

The value of melting point measured for the compound COc1cc(Nc2c(C#N)cnc3c(-c4ccc(CN(C)C)cc4)csc23)c(Cl)cc1Cl turned out to be 201 to 202 °C

----------
Items are presented alongside their recorded melting point.

Look over these answered cases.
compound=Cc1ccc(OC2CCN(CCc3c[nH]c4ccccc34)CC2)cc1 val="115 to 117 °C"
compound=CCOC(=O)CC(=O)N(C)c1ccccc1N val="63 to 64 °C"
compound=O=C(Oc1ccccc1)N1CCC(Oc2ccc(F)cc2)CC1 val="98.5 to 100 °C"
compound="CCOC(=O)C1=C(C)N=C(SCc2ccc(OC)cc2)N(C(=O)OCC)C1c1cccc(Cl)c1Cl (stereo not given)" val="124 to 126 °C"

# next compound below
The value of melting point measured for the compound COc1ccc(-c2nc(-c3cccn3CC(=O)OCC(C)C)sc2-c2ccc(OC)cc2)cc1 turned out to be 106 to 108 °C

----------
Items are presented alongside their recorded melting point.

compound=COC(=O)COc1ccc2cc3c(c(-c4ccc(OC)cc4)c2c1)CNC3=O assay_endpoint="melting point" val="202 to 203 °C"
compound="CCCCC(CC(=O)Nc1cc(C(N)=O)ccc1C(C)(C)C)c1cc(Cl)c(OCCCS(=O)(=O)CCC)cc1OC (stereo not given)" assay_endpoint="melting point" val="144 to 150 °C"
compound="CC(C)(C)[NH+]([O-])C(=O)Nc1ccnc(-c2ccncc2)n1 (stereo not given)" assay_endpoint="melting point" val="125 to 150 °C"
compound=CCOC(=O)C(=O)Nc1ccc2ccccc2c1 assay_endpoint="melting point" val="118 to 120 °C"
compound=COc1ccc(Br)cc1O assay_endpoint="melting point" val="62 to 64 °C"

The value of melting point measured for the compound NC(=O)Cc1nc(C(=O)c2ccccc2)no1 turned out to be 156 to 158 °C

The value of melting point measured for the compound O=C1c2ccccc2C(=O)N1CC1CCc2cccnc2O1 (stereo not given) turned out to be 152 to 158 °C

The value of melting point measured for the compound CCOC(=O)N1CCc2nc3ccccc3c(CO)c2CC1 turned out to be 158 °C

The value of melting point measured for the compound O=C1C2=CSCCN2C(=O)N1c1cccc(Cl)c1F turned out to be 118 to 120 °C

The value of melting point measured for the compound COc1ccc(COCc2nc(C(C)C)c(Sc3cc(Cl)cc(Cl)c3)n2C)cc1 turned out to be 79 to 80 °C

----------
ASSAY ENDPOINT: melting point

Look over these answered cases.
molecule=CC(C)(C)CN1C(=O)N(CC(=O)O)N=C(c2ccccc2Cl)c2cc(Cl)ccc21 assay_endpoint="melting point" val="181 to 183 °C"
molecule=Cc1c(-c2ccc(OCC3CC3)cc2)nc2n(Cc3c(F)cccc3F)cc(Br)c(=O)n12 assay_endpoint="melting point" val="230 to 231 °C"
molecule=OCC1(c2ccccc2)CCCCC1 assay_endpoint="melting point" val="63 to 64 °C"
molecule="O=C(Nc1ccccc1)OC(c1cccnc1)C(Cl)(Cl)Cl (stereo unspecified)" assay_endpoint="melting point" val="146 °C"
molecule="CCOC(=O)C(C)CNc1c(C#N)cnn1-c1c(F)c(F)c(CC)c(F)c1F (stereo unspecified)" assay_endpoint="melting point" val="76 to 78 °C"
molecule=O=C(Cc1cccc(Br)c1)Nc1ccc(Sc2c(O)c3c(Cl)cc(Cl)cc3[nH]c2=O)cc1 assay_endpoint="melting point" val="292 to 296 °C"
molecule=CCCn1nc2c(N)nc3ccccc3c2c1CCNC(=O)CC assay_endpoint="melting point" val="184 to 185 °C"
molecule="CSc1nc2c([nH]1)N(Cc1ccc(Cl)cc1)C1NCCN1C2=O (stereo unspecified)" assay_endpoint="melting point" val="296 to 297 °C"

The value of melting point measured for the molecule COC(=O)CCC(=O)c1ccc2c(c1)CC(CNC(C)=O)C2 (stereo unspecified) turned out to be 139 to 140 °C

The value of melting point measured for the molecule CC(=O)c1ccc(OCc2ccccc2)c2c1OC(C)(C)C(=O)N2 turned out to be 124 to 126 °C

The value of melting point measured for the molecule CCCCc1nc2cc(Cl)cc(C(=O)O)c2n1C(C)c1ccc(C(=O)O)cc1 (stereo unspecified) turned out to be 312 to 315 °C

The value of melting point measured for the molecule CC(=O)N[C@@H](Cc1cn(Cc2ccccc2)cn1)C(=O)OCc1ccccc1 turned out to be 113 to 114 °C

The value of melting point measured for the molecule COC(=O)c1c(Cl)cc(Cl)cc1NC(=O)CSc1ccccc1C(=O)O turned out to be 165 to 166 °C

The value of melting point measured for the molecule COC(=O)[C@@H]1CSC(=O)N1CC(C)(C)SCc1ccc(OC)cc1 turned out to be 51 to 54 °C
